- test-protocol: IUF_NPC1_cytotoxicity_72hr: Cytotoxicity Assessment at 72 hours in the Leibniz Research Institute for Environmental Medicine (IUF) Neural Progenitor Cell Proliferation Assay (NPC1) (AID 2284332);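 also: rising LDH signal means more cytotoxicity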
Results filed as inconclusive are left out. Calls of active or inactive are those of the source. The calls were made as follows: active = hit-call score of the fitted dose curve at least 0.9, where 1 is the maximum; inconclusive = response in the unintended direction; inactive = score below 0.9.
quantity-measured: AC50

>>> print(df.to_string())
                                   molecule  quantity_measured  measurement
0  CC1(C)[C@H](C(=O)O[C@H](C#N)c2cccc(Oc3ccccc3)c2)[C@@H]1/C=C(\Cl)C(F)(F)F               AC50     inactive
1  Cc1cc(C(F)(C(F)(F)F)C(F)(F)F)ccc1NC(=O)c1cccc(I)c1C(=O)NC(C)(C)CS(C)(=O)=O               AC50     inactive
2  CS(=O)(=O)c1ccc(C(=O)C2C(=O)CCCC2=O)c(Cl)c1COCC(F)(F)F               AC50     inactive
3  OC(Cc1ccccc1Cl)(Cn1[nH]cnc1=S)C1(Cl)CC1 (configuration not stated)               AC50     inactive
4  O=S1OC[C@@H]2[C@H](CO1)[C@]1(Cl)C(Cl)=C(Cl)[C@@]2(Cl)C1(Cl)Cl (some centres not stated)               AC50     inactive

"CCOCn1c(-c2ccc(Cl)cc2)c(C#N)c(Br)c1C(F)(F)F" has a reported AC50 of 50.4 µM (active)

"CNC(=O)CSP(=O)(OC)OC" has a reported AC50 of inactive

###

- Read-out: Keratin 19 (KRT19), KRT19 (gene 3880)
- test-protocol: LTEA_HepaRG_KRT19: Life Technologies and Expression Analysis (LTEA) Assay for Keratin 19 (KRT19) using HepaRG (AID 2283512)
- condition: mRNA level, 48 h; actives raise or lower the signal
Calls of active or inactive are those of the source. Rule for the calls: active = hit-call score of the fitted dose curve at least 0.9, where 1 is the maximum; inactive = score below 0.9.
Your answer must be one of the following: class 1 for active, class 0 for inactive

**Query** Status in this test for "Clc1cccc(Cl)c1Cl" ?
**Result** class 0

**Query** Status in this test for "Clc1cccc(Cl)c1" ?
**Result** class 0

**Query** Status in this test for "COc1ccccc1N" ?
**Result** class 0

**Query** Status in this test for "Oc1c(Cl)cc(Cl)cc1Cl" ?
**Result** class 0

**Query** Status in this test for "OCCN(CCO)CCO" ?
**Result** class 0

**Query** Status in this test for "CC(C)O.CC(C)O.OCCN(CCO)CCO.OCCN(CCO)CCO.[Ti]" ?
**Result** class 0

**Query** Status in this test for "N#Cc1cccnc1" ?
**Result** class 0

**Query** Status in this test for "Cc1cc(C)cc(C)c1" ?
**Result** class 0

**Query** Status in this test for "CCCCCCCCCCCCc1cccc(S(=O)(=O)O)c1" ?
**Result** class 1

###

- test-protocol: ATG_Ets_CIS: Attagene CIS-FACTORIAL HepG2 Assay for human Erythroblast Transformation Specific (ETS) (AID 2282941)
- condition: HepG2 ETS cis-reporter transcription, actives raise or lower the signal
Calls of active or inactive are those of the source. Rule for the calls: active = hit-call score of the fitted dose curve at least 0.9, where 1 is the maximum; inactive = score below 0.9.
Your answer must be one of the following: T (active), F (inactive)

**Query** Status in this test for "CC(C)N(C(=O)CCl)c1ccccc1" ?
**Result** F

**Query** Status in this test for "Cc1cc(SCc2sc(-c3ccc(C(F)(F)F)c(F)c3)nc2C)ccc1OCC(=O)O" ?
**Result** F

**Query** Status in this test for "O=C/C(Cl)=C(/Cl)C(=O)O" ?
**Result** F

**Query** Status in this test for "Nc1nc(N)nc(Cl)n1" ?
**Result** F

**Query** Status in this test for "C=CCOC(F)(C(F)(F)F)C(F)(F)F" ?
**Result** F

**Query** Status in this test for "C[CH2][Hg][S]c1ccccc1C(=O)O" ?
**Result** T

**Query** Status in this test for "BrCc1ccc(Br)cc1" ?
**Result** F

**Query** Status in this test for "O=S(=O)(c1ccc(Cl)cc1)c1cc(Cl)c(Cl)cc1Cl" ?
**Result** F

**Query** Status in this test for "CCCCOC(=O)COC(=O)c1ccccc1C(=O)OCCCC" ?
**Result** F

**Query** Status in this test for "OC[P+](CO)(CO)CO" ?
**Result** F

**Query** Status in this test for "O=c1[nH]c2ccccc2n1C1CCN(CCCC(c2ccc(F)cc2)c2ccc(F)cc2)CC1" ?
**Result** F

**Query** Status in this test for "CCN(CC)C(=O)C(Cl)=C(C)OP(=O)(OC)OC" ?
**Result** F

**Query** Status in this test for "N#Cc1ccncc1" ?
**Result** F

**Query** Status in this test for "Cc1cc(Cl)ccc1N" ?
**Result** F

**Query** Status in this test for COC(F)(C(F)(F)C(F)(F)F)C(F)(C(F)(F)F)C(F)(F)F (stereo not given) ?
**Result** F

**Query** Status in this test for "C=CCOC(N)=O" ?
**Result** F

**Query** Status in this test for "Clc1cnc(Oc2ccc(Oc3ncc(Cl)cc3Cl)cc2)c(Cl)c1" ?
**Result** F

**Query** Status in this test for "Brc1ccc(Oc2c(Br)cc(Br)cc2Br)c(Br)c1" ?
**Result** F

**Query** Status in this test for "CC(C)(c1ccc(O)c(-c2ccccc2)c1)c1ccc(O)c(-c2ccccc2)c1" ?
**Result** F

**Query** Status in this test for CC(C)(COCC1CO1)COCC1CO1 (stereo not given) ?
**Result** F

**Query** Status in this test for "CCCCS(=O)(=O)Cl" ?
**Result** F

**Query** Status in this test for "NNCCO" ?
**Result** F

**Query** Status in this test for "C=C(C)C(=O)OCCCCOC(=O)C(=C)C" ?
**Result** F

**Query** Status in this test for "C[N+](C)(C)Cc1ccccc1" ?
**Result** F

**Query** Status in this test for "Cc1c([N+](=O)[O-])c(C)c([N+](=O)[O-])c(C(C)(C)C)c1[N+](=O)[O-]" ?
**Result** F

**Query** Status in this test for "COCCl" ?
**Result** F

**Query** Status in this test for "CCN(N=O)C(N)=O" ?
**Result** F

**Query** Status in this test for CC(C)[C@@H](Nc1ccc(C(F)(F)F)cc1Cl)C(=O)OC(C#N)c1cccc(Oc2ccccc2)c1 (stereo not given in full) ?
**Result** F

**Query** Status in this test for "c1cc[c]([Sb]([c]2ccccc2)[c]2ccccc2)cc1" ?
**Result** F

**Query** Status in this test for "C=CCN=C=S" ?
**Result** F

**Query** Status in this test for "Cc1cc(C(C)(C)c2ccc(O)c(C)c2)ccc1O" ?
**Result** T

**Query** Status in this test for "Clc1cccc(Cl)c1" ?
**Result** F

**Query** Status in this test for "CCOP(=S)(OCC)O/N=C(\C#N)c1ccccc1" ?
**Result** F

**Query** Status in this test for O=S1OC[C@@H]2[C@H](CO1)[C@]1(Cl)C(Cl)=C(Cl)[C@@]2(Cl)C1(Cl)Cl (stereo not given in full) ?
**Result** F

**Query** Status in this test for CCCCCCCCCCCCCCC(Br)C(=O)O (stereo not given) ?
**Result** F

**Query** Status in this test for "CC(=Cc1ccccc1)[N+](=O)[O-]" ?
**Result** F

**Query** Status in this test for "OC[C@@H](O)[C@H]1O[C@@H]2O[C@H](C(Cl)(Cl)Cl)O[C@@H]2[C@H]1O" ?
**Result** F

**Query** Status in this test for "O=C(N[C@H]1CN2CCC1CC2)c1ccc2c(c1)OCCO2" ?
**Result** F

**Query** Status in this test for "[Cl][Sn]([c]1ccccc1)([c]1ccccc1)[c]1ccccc1" ?
**Result** F

**Query** Status in this test for "c1ccc2c(c1)Oc1ccccc1O2" ?
**Result** F

**Query** Status in this test for "N#Cc1ccc(Cl)cc1" ?
**Result** F

**Query** Status in this test for "COC(=O)Nc1cccc(OC(=O)Nc2cccc(C)c2)c1" ?
**Result** F

**Query** Status in this test for "O=C1C[C@@H]2OCC=C3CN4CC[C@]56c7ccccc7N1[C@H]5[C@H]2[C@H]3C[C@H]46" ?
**Result** F

**Query** Status in this test for "ClCCN1CCOCC1" ?
**Result** F

**Query** Status in this test for CC(C)=CC1C(C(=O)OCc2cccc(Oc3ccccc3)c2)C1(C)C (stereo not given) ?
**Result** F

**Query** Status in this test for "O=C(O)C1(c2ccc3c(c2)OC[C@H](Cc2ccc(-c4ccccc4)cc2)[C@H]3O)CCCC1" ?
**Result** F

**Query** Status in this test for CC(C)(C1CCC(O)CC1)C1CCC(O)CC1 (stereo not given) ?
**Result** F

**Query** Status in this test for "C=CCCl" ?
**Result** F

**Query** Status in this test for "COc1ccc(N)cc1" ?
**Result** F

**Query** Status in this test for "O=[N+]([O-])c1c2ccccc2cc2ccccc12" ?
**Result** F

**Query** Status in this test for "N#Cc1cccnc1" ?
**Result** F

**Query** Status in this test for "O=S(=O)(C(Cl)(Cl)Cl)C(Cl)(Cl)Cl" ?
**Result** F

**Query** Status in this test for "O=[N+]([O-])c1ccc(Cl)c([N+](=O)[O-])c1" ?
**Result** F

**Query** Status in this test for "CCOP(=O)(OCC)SCCSCC" ?
**Result** F

**Query** Status in this test for "CCCCCCCCCCCCCl" ?
**Result** F

Cited source: PubChem BioAssay (EPA / NIEHS)
